src = paper PMC4003909

# Study target: BCOR PUFD (1634-1748) with METR leader, co-expressed and purified with PCGF1 RAWUL (human, UniProt Q6W2J9 1634-1748)
# Protocol description: AUC
Property name: Kd

State the recorded Kd for this entry: PCGF1 RAWUL (167-255), co-expressed and purified with a PUFD (domain or fragment, human, UniProt Q9BSM1 167-255, looked up) EQLNLCLERLSSGKDKNKSVLQNKYVRCSVRAEVRHLRRVLCHRLMLNPQHVQLLFDNEVLPDHMTMKQIWLSRWFGKPSPLLLQYSVK < 8.5 µM
